Ref: patent US12398101B2

System: Setaria faberi (SETFA)
experiment: Glasshouse herbicide test, post-emergence application
Format: in vivo
assay context: 250 g/h, evaluated after 13 days
assay endpoint: percentage damage caused to the plant, five point scale, SETFA

>  <record smiles>
CC#Cc1cc(C)c(C2C(=O)CC3(CC2=O)CN(C(=O)C(C)(C)C)C3)c(C)c1

>  <assay result>
5 (5=80-100%)

$$$$

Query: Requested field: percentage damage caused to the plant, five point scale, SETFA. Item: `CC#Cc1cc(C)c(C2C(=O)CC3(CC2=O)CN(C(=O)CC#N)C3)c(C)c1`
Reply: 5 (5=80-100%)

Query: Lookup `CC#Cc1cc(Cl)c(C2C(=O)CC3(CC2=O)CN(C(=O)c2ccccc2)C3)c(OC)c1`
Reply: 5 (5=80-100%)

Query: Then this compound: `CC#Cc1cc(C)c(C2C(=O)CC3(CC2=O)CN(C(=O)CC#N)C3)c(OC)c1`
Reply: 5 (5=80-100%)

Query: Okay, and `CC#Cc1cc(C)c(C2C(=O)CC3(CC2=O)CN(C(=O)COC)C3)c(C)c1` ?
Reply: 5 (5=80-100%)

----------
Test system: Setaria faberi (SETFA)
experiment: Glasshouse herbicide test, post-emergence application
Type: in vivo
assay context: 250 g/h, evaluated after 13 days
assay endpoint: percentage damage caused to the plant, five point scale, SETFA

Some compounds with recorded percentage damage caused to the plant, five point scale, SETFA:
>  <record smiles>
CC#Cc1cc(C)c(C2C(=O)CC3(CC2=O)CN(C(=O)C(C)(C)C)C3)c(OC)c1

>  <assay result>
5 (5=80-100%)

$$$$
>  <record smiles>
CC#Cc1cc(C)c(C2C(=O)CC3(CC2=O)CN(C(=O)C2CC2)C3)c(C)c1

>  <assay result>
5 (5=80-100%)

$$$$
>  <record smiles>
CC#Cc1cc(C)c(C2C(=O)CC3(CC2=O)CN(C(C)=O)C3)c(OC)c1

>  <assay result>
5 (5=80-100%)

$$$$

Query: For the compound `CC#Cc1cc(Cl)c(C2C(=O)CC3(CC2=O)CN(C(=O)C(C)(C)C)C3)c(OC)c1` , what percentage damage caused to the plant, five point scale, SETFA is on record?
Reply: 5 (5=80-100%)

----------
Test system: Setaria faberi (SETFA)
experiment: Glasshouse herbicide test, post-emergence application
Format: in vivo
assay context: 250 g/h, evaluated after 13 days
Below is a list of entries, each paired with its recorded percentage damage caused to the plant, five point scale, SETFA value.

>  <record smiles>
CC#Cc1cc(C)c(C2C(=O)CC3(CC2=O)CN(C(=O)NC(=O)c2ccccn2)C3)c(OC)c1

>  <assay result>
5 (5=80-100%)

$$$$
>  <record smiles>
CC#Cc1cc(C)c(C2C(=O)CC3(CC2=O)CN(C(=O)NC(=O)C(C)(C)C)C3)c(C)c1

>  <assay result>
4 (4=60-79%)

$$$$
>  <record smiles>
CC#Cc1cc(C)c(C2C(=O)CC3(CC2=O)CN(C(=O)c2ccccn2)C3)c(OC)c1

>  <assay result>
5 (5=80-100%)

$$$$
>  <record smiles>
CC#Cc1cc(C)c(C2C(=O)CC3(CC2=O)CN(C(=O)C(F)F)C3)c(OC)c1

>  <assay result>
5 (5=80-100%)

$$$$

Query: I would be grateful if you could share the reported percentage damage caused to the plant, five point scale, SETFA for `CC#Cc1cc(C)c(C2=C(OC(=O)OC)CC3(CC2=O)CN(C(C)=O)C3)c(C)c1` .
Reply: 5 (5=80-100%)

Query: Queued: `CC#Cc1cc(C)c(C2C(=O)CC3(CC2=O)CN(C(=O)C(F)F)C3)c(C)c1`
Reply: 5 (5=80-100%)

Query: Please answer likewise for `CC#Cc1cc(C)c(C2C(=O)CC3(CC2=O)CN(C(C)=O)C3)c(C)c1`
Reply: 5 (5=80-100%)
